Hey, just so you know, these numbers are from PubChem BioAssay (NCI).

Please respond with reported growth for every item in the list.
Test system: RXF 393 renal
EXPERIMENTAL_PROTOCOL: NCI-60 one-dose screen, 48 h (100 = growth as untreated, 0 = no growth, -100 = all killed)
APPLIED_CONDITIONS: 10 µM unless noted
Compounds without any hit were thinned out: in the full panel of roughly 83,000, 20% have a hit.
One number for each entry, in %.

Reference set, count: 5
[[record]]
molecule = "COc1cc(Nc2ccnc3ccc(Br)cc23)cc(OC)c1OC"
assay_readout = "growth"
value_reported = 2.9

[[record]]
molecule = "Cc1cc(C#Cc2ccccc2)ccc1-n1c(/C=C/c2ccc(F)cc2)nc2ccccc2c1=O"
assay_readout = "growth"
value_reported = 99.1

[[record]]
molecule = "CCNS(=O)(=O)c1ccc(C)cc1"
assay_readout = "growth"
value_reported = 113

[[record]]
molecule = "CC1=C(C(=O)Nc2ccc(F)cc2)C(c2ccccc2)C2=C(CC(C)(C)CC2=O)N1 (stereo not given)"
assay_readout = "growth"
value_reported = 96.4

[[record]]
molecule = "COc1ccc(C(=O)c2cc(C)c(OC)c(C)c2)cc1OC(=O)CCl"
assay_readout = "growth"
value_reported = 37.7


# batch: return growth for each of the 3 molecules below
1. CCCCCCCCCCCCCC[N+](C)(C)CCCCCCCCCCCCCC
2. NS(=O)(=O)c1ccc(N2N=C(c3cccs3)CC2c2ccccc2O)cc1 (stereo not given)
3. COc1ccc(/C=c2\c(=O)n(-c3ccccc3)c3nn4c(n23)=NNC42CCCCC2)cc1

Result ::
[2.29, 27.1, 110]

# batch: return growth for each of the 2 molecules below
1. CC(=O)c1c(O)c(C)c(O)c2c1OC1=CC(=O)/C(=C(/C)N)C(=O)C12C (stereo not given)
2. CN1CCN(Cc2ccc(NC(=O)c3cncc(C#Cc4ncc5ccccn45)c3)cc2C(F)(F)F)CC1

Result ::
92.2
-10.1
